Biological target: human mGlu5 receptor (CHO T-REx h-mGluR5 cells) (Homo sapiens (Human), UniProt P41594)
Sequence (P41594 21-1212): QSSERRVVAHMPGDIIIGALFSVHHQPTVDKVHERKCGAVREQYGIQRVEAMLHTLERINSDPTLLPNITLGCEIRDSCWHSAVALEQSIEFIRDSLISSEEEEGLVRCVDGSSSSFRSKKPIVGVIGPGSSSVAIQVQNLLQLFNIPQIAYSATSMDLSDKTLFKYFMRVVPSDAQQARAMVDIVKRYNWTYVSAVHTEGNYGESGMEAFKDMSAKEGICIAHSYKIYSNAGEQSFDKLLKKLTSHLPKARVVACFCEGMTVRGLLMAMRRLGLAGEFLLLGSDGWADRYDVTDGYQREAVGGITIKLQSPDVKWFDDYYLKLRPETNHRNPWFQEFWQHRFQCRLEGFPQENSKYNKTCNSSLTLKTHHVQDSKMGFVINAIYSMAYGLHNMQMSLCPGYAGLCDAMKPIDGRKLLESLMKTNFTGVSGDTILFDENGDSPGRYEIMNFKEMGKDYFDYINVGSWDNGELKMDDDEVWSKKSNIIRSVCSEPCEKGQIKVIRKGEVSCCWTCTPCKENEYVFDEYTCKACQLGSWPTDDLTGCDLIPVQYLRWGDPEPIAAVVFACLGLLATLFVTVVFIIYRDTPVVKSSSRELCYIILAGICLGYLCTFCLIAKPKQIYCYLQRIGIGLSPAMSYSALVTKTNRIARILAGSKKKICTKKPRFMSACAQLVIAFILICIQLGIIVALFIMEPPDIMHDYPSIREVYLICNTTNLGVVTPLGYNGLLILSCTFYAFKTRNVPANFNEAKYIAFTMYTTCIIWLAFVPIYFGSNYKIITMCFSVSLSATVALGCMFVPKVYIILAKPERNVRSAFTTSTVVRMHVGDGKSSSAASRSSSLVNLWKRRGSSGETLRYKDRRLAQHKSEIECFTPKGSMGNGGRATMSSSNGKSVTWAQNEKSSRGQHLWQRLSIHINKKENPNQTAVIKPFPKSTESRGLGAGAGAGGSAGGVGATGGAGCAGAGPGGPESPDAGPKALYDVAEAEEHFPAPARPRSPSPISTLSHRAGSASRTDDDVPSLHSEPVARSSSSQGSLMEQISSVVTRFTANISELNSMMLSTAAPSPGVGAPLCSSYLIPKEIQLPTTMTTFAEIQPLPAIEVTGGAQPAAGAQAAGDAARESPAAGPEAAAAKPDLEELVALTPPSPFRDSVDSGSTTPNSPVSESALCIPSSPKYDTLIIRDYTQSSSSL
Experiment: Calcium fluorescence measurement, potentiation of mGlu5 activation at EC20 of quisqualate
Assay type: cell-based
Conditions: potentiation, agonist quisqualate at EC20; read-out: EC50 nM Quisq.
Endpoint name: EC50 (nM)
A number alone suffices; assume nM.

[ask] Given the entry CC(C)(C)OC(=O)N1CCC2C(C#Cc3cccc(Cl)c3)=NOC21 (stereo not shown) , report its measured EC50.
[reply] 37.1

[ask] Given the entry O=C(N1CCOCC1)N1CCC2C(C#Cc3cccc(Cl)c3)=NOC21 (stereo not shown) , report its measured EC50.
[reply] 132

[ask] Given the entry Cc1cccc(C#CC2=NOC3C2CCN3C(=O)OC(C)(C)C)c1 (stereo not shown) , report its measured EC50.
[reply] 141

[ask] Given the entry Cc1cccc(C#CC2=NOC3C2CCN3C(=O)N2CCOCC2)c1 (stereo not shown) , report its measured EC50.
[reply] 131

====

Target: human mGlu5 receptor (CHO T-REx h-mGluR5 cells) (Homo sapiens (Human), UniProt P41594)
Assay: Calcium fluorescence measurement, potentiation of mGlu5 activation at EC20 of quisqualate
Type: cell-based
Details: 1 microM, agonist quisqualate
Endpoint name: Fold Shift 1 microM Quisq. (fold)
A number alone suffices; assume fold.

[ask] Given the entry Cc1cccc(C#CC2=NOC3C2CCN3C(=O)N2CCOCC2)c1 (stereo not shown) [Example 13] , report its measured Fold Shift 1 microM Quisq..
[reply] 3.2

[ask] Given the entry CC(C)(C)OC(=O)N1CCC2C(C#Cc3cccc(Cl)c3)=NOC21 (stereo not shown) [Example 1] , report its measured Fold Shift 1 microM Quisq..
[reply] 1.8

[ask] Given the entry Cc1cccc(C#CC2=NOC3C2CCN3C(=O)OC(C)(C)C)c1 (stereo not shown) [Example 10] , report its measured Fold Shift 1 microM Quisq..
[reply] 2.2

[ask] Given the entry O=C(N1CCOCC1)N1CCC2C(C#Cc3cccc(Cl)c3)=NOC21 (stereo not shown) [Example 6] , report its measured Fold Shift 1 microM Quisq..
[reply] 2.7

====

Target: human mGlu5 receptor (CHO T-REx h-mGluR5 cells) (Homo sapiens (Human))
Assay: Calcium fluorescence measurement, potentiation of mGlu5 activation at EC20 of quisqualate
Assay type: cell-based
Details: agonist quisqualate
Text: Cell lines stably transfected were generated using inducible expression vectors encoding human mGlu5 receptor using the Tetracycline-Regulated Expression system (T-REx™ system, Invitrogen, Life Technologies). Human mGluR5 open reading frame (ORF), comprehensive of the stop codon, were cloned into the pcDNA4/TO/myc-His™ A vector, carrying the TetO2 sequences. The insertion site was HindIII-PstI for mGluR5 receptors. […]
Given measured Fold Inc. Quisq., output Satisfied if it is greater than or equal to 1 fold and Not satisfied if not.

[ask] Confirm if Fold Inc. Quisq. reported for the compound CC(C)(C)OC(=O)N1CCC2C(C#Cc3cccc(Cl)c3)=NOC21 (centres unmarked) is 1 fold or above.
[reply] Satisfied

[ask] Confirm if Fold Inc. Quisq. reported for the compound Cc1cccc(C#CC2=NOC3C2CCN3C(=O)OC(C)(C)C)n1 (centres unmarked) is 1 fold or above.
[reply] Not satisfied

[ask] Confirm if Fold Inc. Quisq. reported for the compound Cc1cccc(C#CC2=NOC3C2CCN3C(=O)N2CCCCC2)n1 (centres unmarked) is 1 fold or above.
[reply] Satisfied

[ask] Confirm if Fold Inc. Quisq. reported for the compound CCOC(=O)N1CCC2C(C#Cc3cccc(C)n3)=NOC21 (centres unmarked) is 1 fold or above.
[reply] Not satisfied

[ask] Confirm if Fold Inc. Quisq. reported for the compound Cc1cccc(C#CC2=NOC3C2CCN3C(=O)N2CCOCC2)c1 (centres unmarked) is 1 fold or above.
[reply] Satisfied

[ask] Confirm if Fold Inc. Quisq. reported for the compound Cc1cccc(C#CC2=NOC3C2CCN3C(=O)OC(C)(C)C)c1 (centres unmarked) is 1 fold or above.
[reply] Satisfied

[ask] Confirm if Fold Inc. Quisq. reported for the compound O=C(c1ccco1)N1CCC2C(C#Cc3cccc(Cl)c3)=NOC21 (centres unmarked) is 1 fold or above.
[reply] Not satisfied

[ask] Confirm if Fold Inc. Quisq. reported for the compound O=C(N1CCOCC1)N1CCC2C(C#Cc3cccc(Cl)c3)=NOC21 (centres unmarked) is 1 fold or above.
[reply] Satisfied
